# target.entity: T1, CRBN, Q96SW2;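 further: pooled lentiviral library of zinc finger degron-EGFP fusions in mCherry-positive Jurkat cells, FACS-sorted after compound exposure, with degron abundance counted by next-generation sequencing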
# T1 chain: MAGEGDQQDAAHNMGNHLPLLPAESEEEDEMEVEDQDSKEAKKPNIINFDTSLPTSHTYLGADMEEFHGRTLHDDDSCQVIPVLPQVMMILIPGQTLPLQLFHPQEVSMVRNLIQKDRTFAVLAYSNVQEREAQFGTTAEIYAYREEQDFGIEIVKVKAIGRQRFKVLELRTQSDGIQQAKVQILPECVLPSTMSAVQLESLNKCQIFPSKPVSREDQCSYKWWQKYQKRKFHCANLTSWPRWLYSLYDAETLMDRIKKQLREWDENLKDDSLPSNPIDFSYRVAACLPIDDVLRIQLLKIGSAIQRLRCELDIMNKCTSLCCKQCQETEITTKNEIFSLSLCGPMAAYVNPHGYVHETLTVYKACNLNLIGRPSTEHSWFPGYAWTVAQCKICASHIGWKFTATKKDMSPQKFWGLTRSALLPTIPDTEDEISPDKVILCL
# assay.text: log2 fold change of degron read counts, EGFP-low vs EGFP+ sorted cells (limma voom), compound-induced degradation; higher = more compound-induced degradation of the degron-EGFP fusion; degrons are variants of IKZF1/3 zinc finger 2; compound dose not given here
# measurement.context: Jurkat; 18 h; compound: compound 33 (diphenyl IMiD analogue)
In all, about 8,300 sequences were measured (“log2 fold change of degron read counts, EGFP-low vs EGFP+ sorted cells (limma voom), compound-induced degradation”: median about -1.1, highest 2% from about 3.2 on). The sample as a whole holds a higher share of the highest values than the screen did.
// classify(record): look up log2 fold change of degron read counts in ranges interval 1 (below -0.7), interval 2 (-0.7 to below 0.7), interval 3 (0.7 or more)

Request: Which of the defined bands does the recorded log2 fold change of degron read counts of FTCNQCGHFFTQKGNLLRHIKL [46F_47T_49N_50Q_52G_53H_54F_55F_67L_, Q9UKT9] sit within?
Result: interval 1

Request: Which of the defined bands does the recorded log2 fold change of degron read counts of FTCNICGAGFTQKGNLLRHIKL [46F_47T_49N_50I_52G_53A_54G_55F_67L_, Q9UKT9] sit within?
Result: interval 3

Request: Which of the defined bands does the recorded log2 fold change of degron read counts of LRCPICGFDCTQKGNLLRHIKL [46L_47R_49P_50I_52G_53F_54D_55C_67L_, Q9UKT9] sit within?
Result: interval 2

Request: Which of the defined bands does the recorded log2 fold change of degron read counts of FACPICGADFTQKGNLLRHIKL [46F_47A_49P_50I_52G_53A_54D_55F_67L_, Q9UKT9] sit within?
Result: interval 2

Request: Which of the defined bands does the recorded log2 fold change of degron read counts of LYCNQCGFLCTQKGNLLRHIKL [46L_47Y_49N_50Q_52G_53F_54L_55C_67L_, Q9UKT9] sit within?
Result: interval 1

Request: Which of the defined bands does the recorded log2 fold change of degron read counts of FECNVCGAIFTQKGNLLRHIKL [46F_47E_49N_50V_52G_53A_54I_55F_67L_, Q9UKT9] sit within?
Result: interval 2

Request: Which of the defined bands does the recorded log2 fold change of degron read counts of FQCPICGRPFTQKGNLLRHIKL [46F_47Q_49P_50I_52G_53R_54P_55F_67L_, Q9UKT9] sit within?
Result: interval 2

Request: Which of the defined bands does the recorded log2 fold change of degron read counts of LTCEICGFWCTQKGNLLRHIKL [46L_47T_49E_50I_52G_53F_54W_55C_67L_, Q9UKT9] sit within?
Result: interval 3

Request: Which of the defined bands does the recorded log2 fold change of degron read counts of FGCDVCGALFTQKGNLLRHIKL [46F_47G_49D_50V_52G_53A_54L_55F_67L_, Q9UKT9] sit within?
Result: interval 2

Request: Which of the defined bands does the recorded log2 fold change of degron read counts of FWCNQCGRQFTQKGNLLRHIKL [46F_47W_49N_50Q_52G_53R_54Q_55F_67L_, Q9UKT9] sit within?
Result: interval 1

Request: Which of the defined bands does the recorded log2 fold change of degron read counts of FYCDICGAVFTQKGNLLRHIKL [46F_47Y_49D_50I_52G_53A_54V_55F_67L_, Q9UKT9] sit within?
Result: interval 3

Request: Which of the defined bands does the recorded log2 fold change of degron read counts of FSCNICGAEFTQKGNLLRHIKL [46F_47S_49N_50I_52G_53A_54E_55F_67L_, Q9UKT9] sit within?
Result: interval 2

Request: Which of the defined bands does the recorded log2 fold change of degron read counts of FACEICGAEFTQKGNLLRHIKL [46F_47A_49E_50I_52G_53A_54E_55F_67L_, Q9UKT9] sit within?
Result: interval 1
